Reported values of growth inhibition for individual entries
Protocol description: NCI Yeast Anticancer Drug Screen. Data for the rad50 strain (AID 155);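 note: 0% = growth of vehicle-only cultures of the same strain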
Details: S. cerevisiae rad50 strain growth inhibition; at 5.0 µM (retest, dose inferred, filed as 0.5); stronger effect = higher value
Compounds without any hit were thinned out: in the full panel of roughly 79,000, 15% have a hit.
Your answer is read as %, so omit the unit and give the number.

{"Compound": "COc1ccc(/C=C(\\NC(=O)c2ccccc2)C(=O)NN(C)c2ccnc3cc(Cl)ccc23)cc1OC", "Readout unit": "%", "growth inhibition": 0}

Enquiry: Bench note: what growth inhibition did CCOC(=O)C(NC(=O)CC)(N1CCN(c2cc3c(cc2F)c(=O)c(C(=O)O)cn3C2CC2)CC1)C(F)(F)F (stereo unspecified) show?
Return: -10

Enquiry: Bench note: what growth inhibition did NCc1c(O)ccc2ccccc12 show?
Return: -150

Enquiry: Look up growth inhibition for this compound: COc1ccc(/C(C#N)=C/c2ccc(OC)c(OC)c2)cc1
Return: 46

Enquiry: Consider the compound CCCCC(CC)C(=O)Oc1ccc(C(=O)c2ccccc2)c(O)c1 (stereo unspecified) and give its measured growth inhibition.
Return: 50

Enquiry: Requested read-out: growth inhibition. Entry: NC(=O)N1c2ccccc2C=Cc2ccccc21
Return: 60

* * *

Protocol description: NCI Yeast Anticancer Drug Screen. Data for the wt1 strain (AID 149);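 note: 0% = growth of vehicle-treated wt1 cultures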
Details: S. cerevisiae wt1 strain (SPY 50644) growth inhibition; at 33.0 µM
Compounds without any hit were thinned out: in the full panel of roughly 79,000, 15% have a hit. Activity calls are given as the source filed them. Cut-off read from the data, not from the text of the source: active = growth inhibition above about 70%; inactive = the rest.
In this exercise, the only acceptable responses are yes (1) (active), no (0) (inactive)

Illustrative cases are given below, each with its answer.
{"Compound": "O=C(CNS(=O)(=O)Cc1ccccc1)NNc1ccccc1", "Class label": "no (0)"}
{"Compound": "Cc1cc(C(C)(C)CC(C)(C)C)cc(O)c1O", "Class label": "yes (1)"}
{"Compound": "COc1ccc(SCc2cc(OC)ccc2OC)cc1", "Class label": "no (0)"}

Enquiry: Please let me know the test result on file for CC(=O)CC(=O)/C=C/c1cccs1 .
Return: no (0)

Enquiry: Per the records of this test, what outcome belongs to COc1ccc2oc(-c3ccc(Cl)cc3)c(N3CCN(C)CC3)c2c1 ?
Return: yes (1)

* * *

Protocol description: NCI Yeast Anticancer Drug Screen. Data for the mec2-1 strain (AID 157)
Details: S. cerevisiae mec2-1 strain, at 100.0 µM
The panel holds about 79,000 compounds, 15% with a hit somewhere; the sample as a whole holds those more often. The source made the active and inactive calls. Rule as the data show it: active = growth inhibition above about 70%; inactive = the rest.
Write down one outcome, taken from 1 (yes) = active, 0 (no) = inactive

Consider the following illustrative entries.
{"Molecule": "COc1ccc2c(c1)[nH]c1c(/C=C/c3ccccc3)nccc12", "Class label": "1 (yes)"}
{"Molecule": "O=C1c2ccccc2C(=O)c2cc(S(=O)(=O)Nc3ccccc3)ccc21", "Class label": "0 (no)"}
{"Molecule": "S=c1[nH]nc(-c2ccc(Cl)cc2)s1", "Class label": "1 (yes)"}
{"Molecule": "O=[N+]([O-])c1cc(S(=O)(=O)Nc2ccccc2)ccc1Cl", "Class label": "1 (yes)"}
{"Molecule": "O=[N+]([O-])/C(C(Cl)=C(Cl)Cl)=C1/OCCS1", "Class label": "1 (yes)"}
{"Molecule": "CC(C)c1cccc(O)c(=O)c1", "Class label": "1 (yes)"}
{"Molecule": "Oc1ccccc1N=Cc1ccc(Cl)cc1", "Class label": "0 (no)"}
{"Molecule": "O=S1(=O)c2ccccc2N=C(c2ccccc2Cl)CC1c1ccc(F)cc1 (stereo not drawn)", "Class label": "0 (no)"}

Enquiry: Write down the call the test reported for this molecule. Item: CC[C@@]1(OC(=O)CN(C)C)C(=O)OCc2c1cc1n(c2=O)Cc2cc3c(N)cccc3nc2-1
Return: 1 (yes)

Enquiry: Please let me know the test result on file for N#C/C(=C1C=C/C(=N/O)c2ccccc2/1)c1ccccc1 .
Return: 0 (no)

Enquiry: Call for entry O=S(=O)(N/N=C/c1cccc(Cl)c1)c1ccccc1 :
Return: 1 (yes)

Enquiry: Hi team, can someone confirm the assay call for COc1ccc(N2C(=O)CC(Cl)C2=O)cc1 (stereo not drawn) ?
Return: 1 (yes)

Enquiry: Answer briefly: the call reported for COC(=O)c1ccc2c(c1)Cc1ccccc1-2 in this assay.
Return: 0 (no)
